inhibition at 10 µM: recorded values
target: CDK3/Cyclin E1 (Homo sapiens); test: NanoBRET live-cell target engagement, CDK3-NanoLuc/Cyclin E1 in HEK-293; assay type: binding; conditions: CDK3/E1; average; read-out: Inhibition at 10µM (%)
Sequence (Q00526 whole entry): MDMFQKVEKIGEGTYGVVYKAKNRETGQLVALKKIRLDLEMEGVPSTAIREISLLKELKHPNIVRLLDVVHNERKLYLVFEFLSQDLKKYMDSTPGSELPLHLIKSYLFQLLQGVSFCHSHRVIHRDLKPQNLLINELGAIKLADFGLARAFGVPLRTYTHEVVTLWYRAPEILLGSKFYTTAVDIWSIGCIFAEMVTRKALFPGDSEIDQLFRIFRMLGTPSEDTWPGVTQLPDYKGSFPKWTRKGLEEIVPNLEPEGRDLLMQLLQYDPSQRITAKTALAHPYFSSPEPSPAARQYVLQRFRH
Sequence (P24864 whole entry partner): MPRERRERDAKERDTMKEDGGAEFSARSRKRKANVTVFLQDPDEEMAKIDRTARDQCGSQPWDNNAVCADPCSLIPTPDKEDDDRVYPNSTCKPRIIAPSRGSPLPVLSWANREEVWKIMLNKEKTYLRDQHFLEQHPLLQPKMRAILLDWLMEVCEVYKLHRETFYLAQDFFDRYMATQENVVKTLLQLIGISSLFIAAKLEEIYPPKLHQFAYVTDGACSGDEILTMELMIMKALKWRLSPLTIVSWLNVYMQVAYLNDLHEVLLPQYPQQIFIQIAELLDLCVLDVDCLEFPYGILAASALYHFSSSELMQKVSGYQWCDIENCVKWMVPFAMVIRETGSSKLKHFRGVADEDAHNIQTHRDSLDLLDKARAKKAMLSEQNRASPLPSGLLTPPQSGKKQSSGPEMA
Could you write the number and then its unit?

COMPOUND	inhibition at 10 µM
COc1ccc(F)cc1-c1cc(NC(=O)C2CCCNC2)ncc1Cl (stereo not shown) [CDK inhibitor 2]	92.7%
COC1CN(C(=O)c2ccc3c(N)ncc(-c4ccc(-c5cnn(C)c5)cc4)c3n2)C1 [CCT251545 analog]	0.5%

For CNC(=O)c1nn(C)c2c1C(C)(C)Cc1cnc(Nc3ccc(N4CCN(C)CC4)cc3)nc1-2 [Milciclib] the compound record lists inhibition at 10 µM as 77.7%

For CN1CCN(c2ccc(Nc3ncc4cc(C#N)c(=O)n(C5CCCC5)c4n3)cc2)CC1 [ON123300] the compound record lists inhibition at 10 µM as 24.7%

---

IC50: recorded values
biological target: CDK2/Cyclin E1 (Homo sapiens); assay: NanoBRET live-cell target engagement, CDK2-NanoLuc/Cyclin E1 in HEK-293; assay type: binding; conditions: CDK2/E1; n=3 average ± SEM, n=2 average to 2 significant figures; read-out: IC50 (nM) Average*
# unit: nM | format: bare number

COMPOUND	MEASURED QUANTITY	RESULT
C[C@H]1CC[C@H](n2c3cnccc3c3cnc(Nc4ccc5c(n4)CCN(C(=O)CO)C5)nc32)CC1	IC50	310

For "CCCCOc1c(C(=O)c2c(F)cc(C)cc2F)c[nH]c2nncc1-2" the compound record lists IC50 as 22

For CNC1CCN(C(=O)c2ccc(Nc3ncc(F)c(-c4cnc(C)n4C(C)C)n3)cc2)C1 (stereo not shown) the compound record lists IC50 as 6.6

For CC[C@H](CO)Nc1nc(Nc2cccc(-c3ccccn3)c2)c2ncn(C(C)C)c2n1 [(R) - DRF053] the compound record lists IC50 as 410

---

CDK6/D1 Inhibition at 10µM (%): recorded values
target: CDK6/Cyclin D1 (Homo sapiens, UniProt Q00534); assay: NanoBRET live-cell target engagement, NanoLuc-CDK6/Cyclin D1 in HEK-293; assay type: binding; conditions: 10µM; independent experiment 2
Sequence (Q00534 whole entry): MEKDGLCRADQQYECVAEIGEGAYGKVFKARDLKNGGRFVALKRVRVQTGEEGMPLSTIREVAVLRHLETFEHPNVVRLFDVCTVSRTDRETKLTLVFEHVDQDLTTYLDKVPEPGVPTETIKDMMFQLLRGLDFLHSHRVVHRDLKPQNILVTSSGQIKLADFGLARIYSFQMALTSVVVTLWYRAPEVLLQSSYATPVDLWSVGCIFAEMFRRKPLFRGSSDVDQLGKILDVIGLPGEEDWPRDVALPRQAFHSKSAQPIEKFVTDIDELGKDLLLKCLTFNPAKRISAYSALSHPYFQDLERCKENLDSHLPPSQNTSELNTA
Sequence (P24385 whole entry partner): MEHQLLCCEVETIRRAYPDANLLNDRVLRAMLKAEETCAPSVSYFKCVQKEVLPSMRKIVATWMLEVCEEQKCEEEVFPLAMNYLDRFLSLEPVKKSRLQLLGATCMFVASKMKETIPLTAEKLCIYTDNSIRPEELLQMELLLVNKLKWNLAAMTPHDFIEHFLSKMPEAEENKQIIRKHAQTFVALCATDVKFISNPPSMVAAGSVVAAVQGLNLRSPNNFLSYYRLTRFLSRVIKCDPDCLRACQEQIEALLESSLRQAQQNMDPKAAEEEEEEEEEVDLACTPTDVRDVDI
# unit: % | format: bare number

COMPOUND	CDK6/D1 Inhibition at 10µM (%)
O=C1NCCc2[nH]c(-c3ccncc3)cc21	27.0
O=C1NC(=NCc2cccs2)S/C1=C\c1ccc2ncccc2c1	8.5
Cc1c(Br)c(Br)c2c3c1nc(N1CCNCC1)n3CCC2.Cl [SEL 120-34A]	53.1

Now consider the entry below.
For "CN(C)C/C=C/C(=O)Nc1ccc(C(=O)Nc2cccc(Nc3ncc(Cl)c(-c4c[nH]c5ccccc45)n3)c2)cc1" the compound record lists CDK6/D1 Inhibition at 10µM (%) as 93.8

---

inhibition at 10 µM: recorded values
molecular target: CDK2/Cyclin E1 (Homo sapiens); assay: NanoBRET live-cell target engagement, CDK2-NanoLuc/Cyclin E1 in HEK-293; type: binding; conditions: CDK2/E1; experiment 1; read-out: Inhibition at 10µM (%)
# unit: % | format: bare number

Use the examples below as a reference point.
COMPOUND	inhibition at 10 µM / %
COc1ccc(F)cc1-c1cc(NC(=O)C2CCCNC2)ncc1Cl (stereo not shown)	61.9
CNC(=O)c1nn(C)c2c1C(C)(C)Cc1cnc(Nc3ccc(N4CCN(C)CC4)cc3)nc1-2	75.5
CN1CCN(c2ccc(Nc3ncc4cc(C#N)c(=O)n(C5CCCC5)c4n3)cc2)CC1	14.4

For "COc1ccccc1-c1cc(Nc2cccc(CS(N)(=O)=O)c2)ncn1" the compound record lists inhibition at 10 µM as 15.1

Sourced from paper PMC7265341
